Target: T1, IL10Rα/IL2Rγ receptor (human, UniProt Q13651 22-578; P31785 23-369)
T1 sequence (looked up) 1: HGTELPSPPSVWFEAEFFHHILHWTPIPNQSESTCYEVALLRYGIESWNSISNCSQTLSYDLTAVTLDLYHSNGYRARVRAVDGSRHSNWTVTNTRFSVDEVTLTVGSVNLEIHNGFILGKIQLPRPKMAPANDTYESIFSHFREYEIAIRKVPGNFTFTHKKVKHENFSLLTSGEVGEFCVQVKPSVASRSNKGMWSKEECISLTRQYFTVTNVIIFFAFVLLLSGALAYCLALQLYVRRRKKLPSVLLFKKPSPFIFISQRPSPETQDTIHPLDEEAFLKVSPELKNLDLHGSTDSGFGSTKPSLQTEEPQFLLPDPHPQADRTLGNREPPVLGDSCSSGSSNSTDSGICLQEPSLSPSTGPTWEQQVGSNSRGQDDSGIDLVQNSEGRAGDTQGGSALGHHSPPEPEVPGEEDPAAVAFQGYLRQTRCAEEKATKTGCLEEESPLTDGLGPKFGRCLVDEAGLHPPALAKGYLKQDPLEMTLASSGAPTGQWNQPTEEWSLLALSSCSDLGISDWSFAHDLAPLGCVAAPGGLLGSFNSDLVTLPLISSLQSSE
T1 sequence (looked up) 2: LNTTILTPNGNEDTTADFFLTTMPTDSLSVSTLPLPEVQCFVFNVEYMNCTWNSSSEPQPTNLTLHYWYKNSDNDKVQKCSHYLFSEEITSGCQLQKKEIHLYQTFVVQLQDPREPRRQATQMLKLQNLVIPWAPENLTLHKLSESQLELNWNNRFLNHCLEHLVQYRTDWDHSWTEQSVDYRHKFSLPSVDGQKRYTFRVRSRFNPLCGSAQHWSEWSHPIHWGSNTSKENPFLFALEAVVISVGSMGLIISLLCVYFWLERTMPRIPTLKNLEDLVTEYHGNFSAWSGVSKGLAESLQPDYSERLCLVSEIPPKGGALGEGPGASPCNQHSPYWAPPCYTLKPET
Assay: cell-based or functional assay
REPORTED METRIC: pSTAT3 MFI, CD8 T cells, 100 nM (unstimulated 1446) (MFI)

binder="DR441(DR236-DR231) (bispecific antibody) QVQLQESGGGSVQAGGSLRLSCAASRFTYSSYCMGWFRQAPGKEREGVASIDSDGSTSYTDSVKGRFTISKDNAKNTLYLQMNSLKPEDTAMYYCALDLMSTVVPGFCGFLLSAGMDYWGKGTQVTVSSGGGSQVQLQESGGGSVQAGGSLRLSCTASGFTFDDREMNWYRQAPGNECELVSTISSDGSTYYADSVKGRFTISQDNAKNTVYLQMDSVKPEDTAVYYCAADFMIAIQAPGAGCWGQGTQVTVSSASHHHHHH" unit_label=MFI reported_result=4260
binder="DR395(DR229-DR239) (bispecific antibody) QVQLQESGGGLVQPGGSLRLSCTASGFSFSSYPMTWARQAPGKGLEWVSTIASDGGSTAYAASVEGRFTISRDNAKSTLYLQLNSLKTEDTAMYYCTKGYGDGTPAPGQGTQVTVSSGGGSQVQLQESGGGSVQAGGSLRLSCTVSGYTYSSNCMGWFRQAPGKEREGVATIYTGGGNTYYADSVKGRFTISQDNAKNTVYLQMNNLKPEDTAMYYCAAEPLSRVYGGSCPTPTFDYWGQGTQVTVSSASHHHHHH" unit_label=MFI reported_result=3450
binder="DR471(DR241-DR231) (bispecific antibody) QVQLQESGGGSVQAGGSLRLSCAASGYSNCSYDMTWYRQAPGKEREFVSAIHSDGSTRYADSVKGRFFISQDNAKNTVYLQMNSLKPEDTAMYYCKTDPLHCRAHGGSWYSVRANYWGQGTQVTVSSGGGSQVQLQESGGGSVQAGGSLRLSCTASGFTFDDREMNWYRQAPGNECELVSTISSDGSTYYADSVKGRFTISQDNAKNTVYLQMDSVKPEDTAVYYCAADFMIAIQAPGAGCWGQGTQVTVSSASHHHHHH" unit_label=MFI reported_result=4400
binder="DR465(DR240-DR231) (bispecific antibody) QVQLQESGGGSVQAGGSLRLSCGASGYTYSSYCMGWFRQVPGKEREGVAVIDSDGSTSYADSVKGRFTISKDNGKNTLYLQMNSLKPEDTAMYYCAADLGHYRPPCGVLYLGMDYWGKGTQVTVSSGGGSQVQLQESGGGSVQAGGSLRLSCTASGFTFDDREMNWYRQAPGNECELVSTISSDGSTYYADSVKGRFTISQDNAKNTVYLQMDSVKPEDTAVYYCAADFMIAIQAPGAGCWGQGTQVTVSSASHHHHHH" unit_label=MFI reported_result=5020
